assay: chemical genetic growth profiling, strain panel (AID 1159580);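 further: tested at 20 µM; growth read once vehicle control cultures reached saturation at 30 °C; lower values mean less growth of the strain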; settings: S. cerevisiae deletion strains, growth OD, locus YBR023C, strain chs3, hits give low values
Hit rate of the full screen: of about 5,500 compounds, about 2,000 (36%) were called active. Inconclusive results (about 18%) are left out. The list shows a part of the results.
The threshold is 1. Values of normalized growth beneath it are tagged Criterion met; values meeting or exceeding it are tagged Criterion not met.

Illustrative cases are given below, each with its answer.
molecule=CC(=O)OCC1=C(C(=O)O)N2C(=O)[C@@H](NC(=O)Cc3cccs3)[C@H]2SC1 group_label="Criterion not met"
molecule=O=C1[O][Bi][O]c2ccccc21 group_label="Criterion not met"

Is normalized growth strictly under 1 for the entry CCOC(=O)c1c(C)cc(O)cc1O ?
Criterion met

Quick check: does CC(C)c1c(O)ccc2c1CCC1[C@@](C)(C=O)CCC[C@]21C (some centres undefined) have normalized growth under 1?
Criterion met
